# credit: ChEMBL document CHEMBL1143588

Molecular target: UniProt P14061
Sequence (P14061 whole entry): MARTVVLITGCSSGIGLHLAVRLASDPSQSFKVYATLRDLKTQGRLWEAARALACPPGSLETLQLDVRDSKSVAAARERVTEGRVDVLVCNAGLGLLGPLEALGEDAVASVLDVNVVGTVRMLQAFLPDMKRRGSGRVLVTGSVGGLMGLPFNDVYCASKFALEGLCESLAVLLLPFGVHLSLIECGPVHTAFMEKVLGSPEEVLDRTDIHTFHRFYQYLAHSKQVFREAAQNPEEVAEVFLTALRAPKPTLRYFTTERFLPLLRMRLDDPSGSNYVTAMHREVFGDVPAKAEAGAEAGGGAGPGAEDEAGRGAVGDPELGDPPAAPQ
Assay: Inhibitory activity against 17 beta hydroxysteroid dehydrogenase type 1 in T47D cells
readoutKind: IC50 (nM)
Unit nM implied. Number only.

- compound: "COc1cc2c(cc1O)CCC1[C@@H]2CC[C@]2(C)C(=O)C(CC(=O)NCc3cccnc3)C[C@@H]12 (single isomer, unassigned)"
  IC50, nM: 290
- compound: "C[C@]12CC[C@@H]3c4ccc(O)cc4CCC3[C@@H]1CC(CC(=O)NCc1cccnc1)C2=O (single isomer, unassigned)"
  IC50, nM: 37

Alright, here's another compound for you.
Ask: Can you share its IC50? I mean this compound: CCc1cc2c(cc1O)CCC1[C@@H]2CC[C@]2(C)C(=O)C(CC(=O)NCc3cccnc3)C[C@@H]12 (single isomer, unassigned)
Result: 27
